- System: MDA-MB-435
- assay-explanation: NCI tumour cell line growth inhibition, 48 h
Activity calls are given as the source filed them. Rule as the data show it: active = GI50 up to about 1.1 µM and inactive = higher.
API: response.call in 1 = active, -1 = inactive

compound | assigned-category
C[N+](C)(C)CCOP(=O)([O-])OCCNC(=O)c1ccc2ccccc2c1 | -1

Lab note: next compound to report on.
Task: Name the outcome recorded for `C#CCn1c(=O)c(C)cn(/C(=C/C(=O)OCC)C(=O)OCC)c1=O` in the assay.
Output: -1

----------
Measured GI50, listed per entry.
- Tested on: A498
- assay-explanation: NCI tumour cell line growth inhibition, 48 h
The source made the active and inactive calls. No stated cut-off is given here; in the data, active = GI50 up to about 1.1 µM and inactive = higher.

Use the examples below as a reference point.
molecule | study-target | GI50
N#Cc1cccc(N2C(=O)C3C4C=CC(C3C2=O)C2C(=O)N(c3cccc(C#N)c3)C(=O)C42)c1 (centres undefined) | A498 | 22.4 µM (inactive)
COc1ccc(-c2c(N)[n+]([O-])c3cc(C)c(C)cc3[n+]2[O-])cc1OC | A498 | > 100 µM (inactive)
NC1=NN(c2ccccc2)C2(c3ccncc3C(=O)O)C1C(N)=NN2c1ccccc1 (centres undefined) | A498 | > 100 µM (inactive)

Task: GI50 lookup needed for `Cc1ccc(C)n1-c1ccccc1C1C=CN(C(=O)OC(C)(C)C)C=C1` , thanks.
Output: 50.5 µM (inactive)

Task: Give its GI50 value. Item: `O=C(Oc1c(Cl)cc(C2(c3cc(Cl)c(OC(=O)c4ccccc4)c(Cl)c3)CCCCC2)cc1Cl)c1ccccc1`
Output: 11.4 µM (inactive)

Task: Report GI50 for `CCOC(=O)CCc1cc(=O)oc2cc(O)cc(O)c12` please.
Output: 50.1 µM (inactive)

Task: For the molecule `Cc1c(-c2ccccc2)c(C#N)c2nnn(-c3cccc(Cl)c3)c(=O)n12` , what GI50 is on record?
Output: 26.2 µM (inactive)

Task: Can you share its GI50? I mean this molecule: `O=C(NC(C(F)(F)F)(C(F)(F)F)P(=O)(Cc1ccccc1)Cc1ccccc1)C(C(F)(F)F)C(F)(F)F`
Output: 17.3 µM (inactive)

Task: Which GI50 value is on record for `COc1ccc(/C=C(\NC(=O)c2ccccc2)c2nc3ccccc3[nH]2)cc1OC` ?
Output: > 100 µM (inactive)
